Soil treatment phytotoxicity, Rice by entry:
system: rice; experiment: Phytotoxicity test for field crops (soil treatment test); assay type: in vivo; conditions: 50 g ai/ha; Rice (10 days after treatment)
// no unit string in output, number only

Here is how some compounds turned out for Soil treatment phytotoxicity, Rice.
Compound | Outcome Measure | Number
Cn1ncnc1COCc1nc(C(F)(F)F)ccc1C(=O)Nc1nnnn1C | Soil treatment phytotoxicity, Rice | 5
Cn1nc(COCc2nc(C(F)(F)F)ccc2C(=O)Nc2nnnn2C)nc1Br | Soil treatment phytotoxicity, Rice | 3
CON(Cc1nnn(C)n1)Cc1nc(C(F)(F)F)ccc1C(=O)Nc1nnnn1C | Soil treatment phytotoxicity, Rice | 7
Cn1nnnc1NC(=O)c1ccc(C(F)(F)F)nc1Sc1nnnn1C | Soil treatment phytotoxicity, Rice | 0
Cn1nnnc1NC(=O)c1ccc(C(F)(F)F)nc1OCc1nnnn1C(F)F | Soil treatment phytotoxicity, Rice | 1
Cn1cnc(COCc2nc(C(F)F)ccc2C(=O)Nc2nnnn2C)n1 | Soil treatment phytotoxicity, Rice | 0
CON(Cc1nnn(C)n1)c1nc(C(F)(F)F)ccc1C(=O)Nc1nnnn1C | Soil treatment phytotoxicity, Rice | 4
Cn1nnnc1COCc1nc(C(F)(F)F)ccc1C(=O)Nc1nnnn1C | Soil treatment phytotoxicity, Rice | 0

Task: Please give the measured Soil treatment phytotoxicity, Rice for this compound: `Cn1nnc(COCc2nc(C(F)(F)F)ccc2C(=S)Nc2nnnn2C)n1`
Result: 8

Task: So what does the record say about Soil treatment phytotoxicity, Rice for `CN(Cc1nnn(C)n1)c1nc(C(F)(F)F)ccc1C(=O)Nc1nnnn1C` ?
Result: 3

Task: Fill in the blank: the reported Soil treatment phytotoxicity, Rice of `Cn1nnc(CSCc2nc(C(F)(F)F)ccc2C(=O)N(c2nnnn2C)S(C)(=O)=O)n1` is ____.
Result: 0

Task: // returns reported Soil treatment phytotoxicity, Rice for input CCOC(=O)OC(C)n1nnn(C)c1=NC(=O)c1ccc(C(F)(F)F)nc1CSCc1nnn(C)n1 (centres unmarked)
Result: 0

* * *

tested on: rice; assay: Phytotoxicity test for field crops (soil treatment test); assay type: in vivo; design: key: 0 (no harm); 9 (complete withered); conditions: 100 g ai/ha; Rice (20 days after treatment)
Rule: Soil treatment phytotoxicity, Rice below 7 gives fulfilled. Equal to or above 7 gives not fulfilled.

Compound | Target Of Assay | Class Assignment
CN(Cc1nnn(C)n1)c1nc(C(F)(F)F)ccc1C(=O)Nc1nnnn1C | rice | not fulfilled
Cn1ncnc1COc1nc(C(F)(F)F)ccc1C(=O)Nc1nnnn1C | rice | not fulfilled
Cn1nnc(COc2nc(C(F)(F)F)ccc2C(=O)Nc2nnnn2C)n1 | rice | fulfilled
Cn1nc(COCc2nc(C(F)(F)F)ccc2C(=O)Nc2nnnn2C)nc1Cl | rice | not fulfilled
Cc1nc(COCc2nc(C(F)(F)F)ccc2C(=O)Nc2nnnn2C)nn1C | rice | fulfilled

Task: # strict comparison: is reported Soil treatment phytotoxicity, Rice < 7? input = `Cn1nnnc1COCc1nc(C(F)(F)F)ccc1C(=O)Nc1nnnn1C`
Result: fulfilled

Task: Hi there! Is Soil treatment phytotoxicity, Rice for `Cn1nnc(COCc2nc(C(F)(F)C(F)(F)F)ccc2C(=O)Nc2nnnn2C)n1` below 7, do you know?
Result: not fulfilled

Task: State whether 7 exceeds Soil treatment phytotoxicity, Rice recorded for `Cn1ncnc1COCc1nc(C(F)(F)F)ccc1C(=O)Nc1nnnn1C` .
Result: fulfilled

Task: Determine whether this compound shows Soil treatment phytotoxicity, Rice lower than 7 (ties excluded): `Cn1nc(COCc2nc(C(F)(F)F)ccc2C(=O)Nc2nnnn2C)nc1C#N`
Result: fulfilled

Task: Consider `Cn1nnc(COCc2nc(C(F)(F)F)ccc2C(=S)Nc2nnnn2C)n1` . Does its Soil treatment phytotoxicity, Rice lie strictly below 7?
Result: not fulfilled

Task: Does `Cn1nnc(COCc2nc(C(F)(F)Cl)ccc2C(=O)Nc2nnnn2C)n1` have Soil treatment phytotoxicity, Rice strictly under 7?
Result: not fulfilled

Task: Lab note: confirm whether the reported Soil treatment phytotoxicity, Rice for this compound is below 7, equality not counting. compound: CCOC(=O)OC(C)n1nnn(C)c1=NC(=O)c1ccc(C(F)(F)F)nc1CSCc1nnn(C)n1 (stereo not shown)
Result: fulfilled

Task: Would you kindly verify if Soil treatment phytotoxicity, Rice of `Cn1nnnc1COc1nc(C(F)(F)F)ccc1C(=S)Nc1nnnn1C` is strictly less than 7?
Result: not fulfilled

Task: Here's an entry: `Cn1nnnc1NC(=O)c1ccc(C(F)(F)F)nc1OCc1nnnn1C(F)F` . Is its Soil treatment phytotoxicity, Rice below 7?
Result: not fulfilled

Task: Given the entry `Cn1cnc(COCc2nc(C(F)F)ccc2C(=O)Nc2nnnn2C)n1` , would its reported Soil treatment phytotoxicity, Rice be below 7?
Result: fulfilled

Task: Is Soil treatment phytotoxicity, Rice of `Cn1nnc(CSCc2nc(C(F)(F)F)ccc2C(=O)N(C(=O)c2ccccc2)c2nnnn2C)n1` strictly below 7?
Result: fulfilled

Task: Please state whether Soil treatment phytotoxicity, Rice is below 7 for `Cn1nnnc1COc1nc(C(F)(F)F)ccc1C(=O)Nc1nnnn1C`
Result: not fulfilled

Task: Is it true that Soil treatment phytotoxicity, Rice reported for `CON(Cc1nnn(C)n1)Cc1nc(C(F)(F)F)ccc1C(=O)Nc1nnnn1C` is less than 7?
Result: not fulfilled

Task: is_below(Soil treatment phytotoxicity, Rice, 7) for `Cn1nnc(CSCc2nc(C(F)(F)F)ccc2C(=O)N(c2nnnn2C)S(C)(=O)=O)n1` ?
Result: fulfilled

Task: For `CON(Cc1nnn(C)n1)c1nc(C(F)(F)F)ccc1C(=O)Nc1nnnn1C` , is the recorded Soil treatment phytotoxicity, Rice below the cut-off of 7?
Result: not fulfilled

Task: State whether 7 exceeds Soil treatment phytotoxicity, Rice recorded for `Cn1nnnc1NC(=O)c1ccc(C(F)(F)F)nc1Sc1nnnn1C` .
Result: fulfilled

Task: Given the entry `Cn1nnc(COCc2nc(C(F)(F)F)ccc2C(=O)Nc2nnnn2C)n1` , would its reported Soil treatment phytotoxicity, Rice be below 7?
Result: not fulfilled

Task: Lab note: Soil treatment phytotoxicity, Rice threshold 7. Does this compound come in strictly under it? `Cn1nnc(CSCc2nc(C(F)F)ccc2C(=O)Nc2nnnn2C)n1`
Result: fulfilled

Task: Please check: Soil treatment phytotoxicity, Rice for `Cn1nnc(COCc2nc(C(F)(F)F)ccc2C(=O)N(C(=O)c2ccccc2)c2nnnn2C)n1` , strictly under 7 or not?
Result: not fulfilled

Task: Just wondering, is Soil treatment phytotoxicity, Rice of `Cc1nc(COCc2nc(C(F)(F)F)ccc2C(=S)Nc2nnnn2C)nn1C` below 7?
Result: fulfilled
